Values were extracted from paper PMC11275008.

- TESTED ON: NF-κB (recombinant human NF-κB; docking used NF-κB p65-RelA) (Homo sapiens, UniProt Q04206)
- Construct: commercial recombinant protein (Sino Biological); labelled with RED-NHS 2nd generation dye on lysines
- Sequence (Q04206 whole entry): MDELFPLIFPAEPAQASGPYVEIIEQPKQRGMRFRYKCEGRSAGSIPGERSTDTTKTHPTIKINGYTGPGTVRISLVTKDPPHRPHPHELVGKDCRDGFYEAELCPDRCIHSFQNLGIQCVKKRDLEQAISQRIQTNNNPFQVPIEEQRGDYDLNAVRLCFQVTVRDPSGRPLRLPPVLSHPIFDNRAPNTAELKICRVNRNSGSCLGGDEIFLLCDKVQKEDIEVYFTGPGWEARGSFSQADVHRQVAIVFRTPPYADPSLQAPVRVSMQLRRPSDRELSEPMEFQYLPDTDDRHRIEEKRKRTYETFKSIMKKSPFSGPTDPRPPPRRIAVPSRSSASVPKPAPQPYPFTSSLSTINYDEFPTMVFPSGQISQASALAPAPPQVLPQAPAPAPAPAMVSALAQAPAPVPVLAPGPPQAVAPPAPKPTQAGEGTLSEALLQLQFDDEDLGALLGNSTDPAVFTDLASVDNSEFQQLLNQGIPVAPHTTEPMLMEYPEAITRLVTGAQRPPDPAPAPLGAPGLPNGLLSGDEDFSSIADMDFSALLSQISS
- ASSAY PROTOCOL: microscale thermophoresis
REPORTED PROPERTY: pKd
Answers are plain numbers, as −log10 of the molar value.

Prompt: Need pKd of CC1(C)CC[C@]2(C)CC[C@]3(C)C(=CC[C@@H]4[C@@]5(C)CC[C@H](O)C(C)(C)[C@@H]5CC[C@]43C)[C@@H]2C1 [β-amyrin] , thanks.
Response: 6.03
